Target: Biotinylated KRAS G12C protein (Homo sapiens (Human), UniProt P01116, C118S/C51S/C80L/G12C)
Sequence (P01116 other isoform, or with tags, fused parts or gaps, stated change not applied): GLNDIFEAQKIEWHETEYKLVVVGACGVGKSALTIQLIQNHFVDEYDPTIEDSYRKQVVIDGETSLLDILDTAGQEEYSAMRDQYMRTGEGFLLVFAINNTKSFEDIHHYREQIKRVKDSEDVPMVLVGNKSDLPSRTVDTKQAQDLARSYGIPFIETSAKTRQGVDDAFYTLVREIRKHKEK
Test: SOS-catalyzed nucleotide exchange assay (TR-FRET)
Format: biochemical
Conditions: in vitro apparent potency; preincubation time of 60 minutes prior to addition of SOS
Experimental: The SOS-catalyzed nucleotide exchange assay utilizes a preformed complex of recombinant biotinylated KRAS protein containing G12C/C51S/C80L/C118S mutations (183 amino acids; biotin on K10; leader sequence which is an AviTag; referred to as SEQ ID NO: 1 or “Biotinylated KRAS G12C protein” hereafter), Bodipy-GDP, and Terbium-streptavidin. Compounds are added to this complex and then after incubation for 60 minutes, the mixture is treated with recombinant SOS protein and unlabeled GTP. […]
// classify: if (IC50 < 50 nM) YES else NO

Compound | Classification
C=CC(=O)N1CC2CCC1CN2c1nc(=O)n2c3nc(c(F)cc13)-c1c(F)cccc1OCCCc1ccnc(C(C)C)c1-2 (stereo not drawn) [Example 105] | NO
C=C(F)C(=O)N1CCN(c2nc(=O)n3c4nc(c(F)cc24)-c2c(F)cccc2OCCCCc2ccnc(C(C)C)c2-3)[C@@H](C)C1 | YES
C=CC(=O)N1C[C@H](C)N(c2nc(=O)n3c4nc(c(Cl)cc24)-c2c(F)cccc2OCC(F)(F)COc2ccnc(C(C)C)c2-3)C[C@H]1C | YES
C=CC(=O)N1CCN(c2nc(=O)n3c4nc(c(Cl)cc24)-c2c(F)cccc2OCCc2ccccc2-3)[C@@H](C)C1 | NO
C=CC(=O)N1CCN(c2nc(=O)n3c4nc(c(F)cc24)-c2c(ccc(F)c2F)OCC(F)(F)CCc2ccnc(C(C)C)c2-3)CC1 | YES
C=CC(=O)N1CCN(c2nc(=O)n3c4nc(c(F)cc24)-c2c(F)cccc2OCCCc2ccnc(C(C)C)c2-3)C[C@@H]1CC | NO
